pKi: −log10 of the molar value.
Compiled notes: published pKi values involving Neprilysin (Homo sapiens).
Everything with pKi lower than 7 is False; everything else, including exactly 7, is True.

compound="O=C(N[C@@H](Cc1ccccc1)P(=O)(O)C1CCC[C@H]1C(=O)N[C@@H](Cc1c[nH]c2ccccc12)C(=O)O)OCc1ccccc1 (single isomer, unassigned)" category=False
compound=CCCC[C@H](N[C@@H](CCc1ccccc1)C(=O)O)C(=O)N[C@@H](Cc1ccc(O)cc1)C(=O)O category=False
compound=O=C(O)CC(=O)N[C@@H](CS)Cc1ccccc1 category=True
compound=O=C(N[C@H]1CCS[C@H]2CCC[C@@H](C(=O)O)N2C1=O)[C@@H](S)Cc1ccccc1 category=True
compound="O=C(N[C@@H](Cc1ccccc1)P(=O)(O)CC(Cc1ccc(-c2ccccc2)cc1)C(=O)N[C@@H](Cc1c[nH]c2ccccc12)C(=O)O)OCc1ccccc1 (stereo partly drawn)" category=True
compound="O=C(N[C@@H](Cc1ccccc1)P(=O)(O)CC(CC1CC(c2ccc(-c3ccccc3)cc2)=NO1)C(=O)N[C@@H](Cc1c[nH]c2ccccc12)C(=O)O)OCc1ccccc1 (stereo partly drawn)" category=False
